Biological target: human RORγ (Homo sapiens, UniProt P51449)
Construct: human RORγ, from Ser253 to Lys518; expressed in transfected cells; host or cells: CHO cells (Chinese hamster ovary), transient co-transfection with pG5-Luc
Sequence (P51449 253-518): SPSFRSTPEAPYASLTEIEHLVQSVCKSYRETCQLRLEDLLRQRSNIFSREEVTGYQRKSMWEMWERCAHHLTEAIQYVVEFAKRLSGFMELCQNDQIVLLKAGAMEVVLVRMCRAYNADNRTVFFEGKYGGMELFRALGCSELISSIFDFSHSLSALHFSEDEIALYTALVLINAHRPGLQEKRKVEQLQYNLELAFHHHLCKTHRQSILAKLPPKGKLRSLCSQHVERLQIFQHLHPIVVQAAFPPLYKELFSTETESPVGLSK
Experiment: In vitro assay of inhibitory effect against RORγ transcriptional activity (GAL4-hRORγ LBD luciferase reporter gene assay in CHO cells)
Format: cell-based
Settings: value in parentheses beside the EC50 bound; vehicle-control 0.2% DMSO alone = 100%
Protocol: In Vitro Assay of Inhibitory Effect Against RORγ Transcriptional Activity Inhibitory effect of a test article on transcriptional activity of RORγ was measured by means of the following reporter gene assay. […] RORγ transcriptional activity was detected as the intracellular luciferase activity using SteadyLite HTS Reporter Gene Assay System (Perkin Elmer). […] After the incubation at room temperature for 10 minutes, luminescence of each well was measured by a microplate reader. […]
measuredAttribute: hRORγ luciferase activity, %-of-control

molecule: CC(C)CCS(=O)(=O)c1ccc([C@]2(C)NC(=O)N(CCC(=O)O)C=C2C(C)C)cc1Cl
readoutValue: (86%)

molecule: CC(C)C[S+]([O-])c1ccc([C@]2(C)NC(=O)N(CCC(=O)O)C=C2C(C)C)cc1Cl (mixture of isomers)
readoutValue: (77%)

molecule: CC(C)C1=CN(CCC(=O)O)C(=O)N[C@@]1(C)c1ccc(CCC(C)(C)C(=O)O)c(Cl)c1
readoutValue: (90%)

molecule: CC(C)C1=CN([C@@H]2CCCC[C@H]2C(=O)O)C(=O)N[C@@]1(C)c1ccc(CCC(C)(C)C)c(Cl)c1
readoutValue: (70%)

molecule: CC(C)C1=CN(CCC(=O)O)C(=O)N[C@@]1(C)c1ccc([S+]([O-])C2CCCC2)c(Cl)c1 (mixture of isomers)
readoutValue: (78%)

molecule: CC(C)C1=CN(CCC(=O)O)C(=O)N[C@@]1(C)c1ccc([C@H]2C[C@@H](CC(C)(C)C)C2)c(Cl)c1
readoutValue: (63%)

molecule: COC(=O)[C@H]1C[C@H](N2C=C(C(C)(C)CCCO)[C@@](C)(c3ccc(CCC(C)(C)C)c(Cl)c3)NC2=O)C1 (single isomer, unassigned)
readoutValue: (74%)

----------
Target: human RORγ (Homo sapiens, UniProt P51449)
Construct: human RORγ, from Ser253 to Lys518; expressed in transfected cells; host or cells: CHO cells (Chinese hamster ovary), transient co-transfection with pG5-Luc
Assay: In vitro assay of inhibitory effect against RORγ transcriptional activity (GAL4-hRORγ LBD luciferase reporter gene assay in CHO cells)
Assay type: cell-based
Conditions: GAL4-hRORγ LBD / pG5-Luc in CHO cells, 2 days incubation

compound: CC(C)C1=CN([C@@H]2CC(=O)N(CC(=O)O)C2)C(=O)N[C@@]1(C)c1ccc(CCC(C)(C)C)c(Cl)c1 [Example 163]
experimentalTarget: human RORγ (Homo sapiens, UniProt P51449)
relationOperator: =
EC50, µM: 0.143

compound: CC(C)C1=CN(CCCC(=O)O)C(=O)NC1(C)c1ccc(OCC(C)(C)C)c(Cl)c1 (racemic) [Example 9]
experimentalTarget: human RORγ (Homo sapiens, UniProt P51449)
relationOperator: =
EC50, µM: 0.055

compound: CC(C)C1=CN(CCc2ccc(C(=O)O)cc2)C(=O)N[C@@]1(C)c1ccc(CCC(C)(C)C)c(Cl)c1 [Example 50]
experimentalTarget: human RORγ (Homo sapiens, UniProt P51449)
relationOperator: =
EC50, µM: 0.007

compound: CC(C)C1=CN(CCC(=O)O)C(=O)N[C@@]1(C)c1ccc(OCC(C)(C)C)c(Cl)c1 [Example 126]
experimentalTarget: human RORγ (Homo sapiens, UniProt P51449)
relationOperator: =
EC50, µM: 0.037

compound: CC(C)C1=CN(CCC(=O)O)C(=O)N[C@]1(C)c1ccc(CCC2CCCCC2)c(Cl)c1 [Example 138]
experimentalTarget: human RORγ (Homo sapiens, UniProt P51449)
relationOperator: >
EC50, µM: 8

compound: CC(C)(C)COc1ccc(C2NC(=O)NC=C2C(C)(C)C(=O)O)cc1Cl (racemic) [Example 2]
experimentalTarget: human RORγ (Homo sapiens, UniProt P51449)
relationOperator: >
EC50, µM: 20

compound: CC(C)C1=CN(CCCC(=O)O)C(=O)N[C@]1(C)c1ccc(CCC2CCC2)c(Cl)c1 [Example 109]
experimentalTarget: human RORγ (Homo sapiens, UniProt P51449)
relationOperator: >
EC50, µM: 8

compound: CC(C)C1=CN(CCC(=O)O)C(=O)N[C@@]1(C)c1ccc(C2CCCCC2)c(Cl)c1 [Example 136]
experimentalTarget: human RORγ (Homo sapiens, UniProt P51449)
relationOperator: =
EC50, µM: 0.094

compound: CC(C)C1=CN(C[C@H]2C[C@H](C(=O)O)C2)C(=O)NC1(C)c1ccc(CCC(C)(C)C)c(Cl)c1 (mixture of isomers) [Example 80]
experimentalTarget: human RORγ (Homo sapiens, UniProt P51449)
relationOperator: =
EC50, µM: 0.016

compound: CCC(C)C1=CN(CCCC(=O)O)C(=O)NC1(C)c1ccc(CCC(C)(C)C)c(Cl)c1 (single isomer, unassigned) [Example 34]
experimentalTarget: human RORγ (Homo sapiens, UniProt P51449)
relationOperator: =
EC50, µM: 0.013

compound: CC(C)CCC1=CN(CCCC(=O)O)C(=O)N[C@]1(C)c1ccc(CCC(C)(C)C)c(Cl)c1 [Example 43]
experimentalTarget: human RORγ (Homo sapiens, UniProt P51449)
relationOperator: =
EC50, µM: 0.564

compound: CC(C)C1=CN(CCC(C)(C)C(=O)O)C(=O)N[C@]1(C)c1ccc(CCC(C)(C)C)c(Cl)c1 [Example 54]
experimentalTarget: human RORγ (Homo sapiens, UniProt P51449)
relationOperator: >
EC50, µM: 8

compound: CC(C)(C)CCc1ccc([C@]2(C)NC(=O)N(CCCC(=O)O)C=C2C2(C)CC2)cc1Cl [Example 52]
experimentalTarget: human RORγ (Homo sapiens, UniProt P51449)
relationOperator: =
EC50, µM: 0.01

compound: CC(C)(C)CCc1ccc([C@@]2(C)NC(=O)N(CCCC(=O)O)C=C2C2(C)CC2)cc1Cl [Example 51]
experimentalTarget: human RORγ (Homo sapiens, UniProt P51449)
relationOperator: =
EC50, µM: 1.18

compound: CC(C)C1=CN([C@H]2CC[C@H](C(=O)O)CC2)C(=O)NC1(C)c1ccc(CCC(C)(C)C)c(Cl)c1 (mixture of isomers) [Example 29]
experimentalTarget: human RORγ (Homo sapiens, UniProt P51449)
relationOperator: =
EC50, µM: 0.036

compound: CC(C)CC1=CN(CCCC(=O)O)C(=O)N[C@]1(C)c1ccc(CCC(C)(C)C)c(Cl)c1 [Example 37]
experimentalTarget: human RORγ (Homo sapiens, UniProt P51449)
relationOperator: =
EC50, µM: 0.154

compound: CC(C)C1=CN(C(C)CCC(=O)O)C(=O)NC1(C)c1ccc(CCC(C)(C)C)c(Cl)c1 (centres unmarked) [Example 73]
experimentalTarget: human RORγ (Homo sapiens, UniProt P51449)
relationOperator: =
EC50, µM: 0.803

compound: CC(C)(C)CCc1ccc(C2NC(=O)N(CCCC(=O)O)C=C2C(C)(C)C)cc1Cl (single isomer, unassigned) [Example 11]
experimentalTarget: human RORγ (Homo sapiens, UniProt P51449)
relationOperator: >
EC50, µM: 8

compound: CC(C)C1=CN(CC(C)(C)CC(=O)O)C(=O)N[C@@]1(C)c1ccc(CCC(C)(C)C)c(Cl)c1 [Example 36]
experimentalTarget: human RORγ (Homo sapiens, UniProt P51449)
relationOperator: =
EC50, µM: 0.021

compound: CC(C)C1=CN(C2CCC(C(=O)O)C2)C(=O)N[C@]1(C)c1ccc(CCC(C)(C)C)c(Cl)c1 (single isomer, unassigned) [Example 63]
experimentalTarget: human RORγ (Homo sapiens, UniProt P51449)
relationOperator: >
EC50, µM: 8

compound: CC(C)C1=CN(CCC(=O)O)C(=O)N[C@@]1(C)c1ccc(C2CC2C(C)(C)C)c(Cl)c1 (single isomer, unassigned) [Example 169]
experimentalTarget: human RORγ (Homo sapiens, UniProt P51449)
relationOperator: =
EC50, µM: 0.008

compound: CC(C)C1=CN([C@H]2CC[C@@H](C(=O)O)CC2)C(=O)N[C@@]1(C)c1ccc(CCC(C)(C)C)c(Cl)c1 [Example 67]
experimentalTarget: human RORγ (Homo sapiens, UniProt P51449)
relationOperator: =
EC50, µM: 0.023

compound: CC(C)C1=CN(CCC(=O)O)C(=O)N[C@]1(C)c1ccc(C2CCC(C)(C)CC2)c(Cl)c1 [Example 117]
experimentalTarget: human RORγ (Homo sapiens, UniProt P51449)
relationOperator: >
EC50, µM: 3.2

compound: CC(C)C1=CN(CCC(=O)O)C(=O)N[C@@]1(C)c1ccc(OCCC(C)(C)C)c(Cl)c1 [Example 125]
experimentalTarget: human RORγ (Homo sapiens, UniProt P51449)
relationOperator: <
EC50, µM: 0.032

compound: CC(C)C1=CN(CCC(=O)O)C(=O)N[C@]1(C)c1ccc(C2=CCCCC2)c(Cl)c1 [Example 133]
experimentalTarget: human RORγ (Homo sapiens, UniProt P51449)
relationOperator: >
EC50, µM: 8

compound: CC(C)C1=CN(CCCC(C)(C)C(=O)O)C(=O)N[C@]1(C)c1ccc(CCC(C)(C)C)c(Cl)c1 [Example 74]
experimentalTarget: human RORγ (Homo sapiens, UniProt P51449)
relationOperator: =
EC50, µM: 0.986

compound: CCC(CC)Cc1ccc([C@]2(C)NC(=O)N(CCC(=O)O)C=C2C(C)C)cc1Cl [Example 177]
experimentalTarget: human RORγ (Homo sapiens, UniProt P51449)
relationOperator: =
EC50, µM: 0.017

compound: CC(C)C1=CN(CCC(=O)O)C(=O)N[C@@]1(C)c1ccc(CCCC(C)(C)C)c(Cl)c1 [Example 124]
experimentalTarget: human RORγ (Homo sapiens, UniProt P51449)
relationOperator: >
EC50, µM: 0.512

compound: CC(C)C1=CN(CCCCC(=O)O)C(=O)N[C@]1(C)c1ccc(CCC(C)(C)C)c(Cl)c1 [Example 47]
experimentalTarget: human RORγ (Homo sapiens, UniProt P51449)
relationOperator: =
EC50, µM: 1.1
